Just for reference, patent US6545182B2 is where these values come from.

Assayed target: alpha 2A adrenergic receptor (Homo sapiens, UniProt P08913)
Construct: expressed in transfected cells; host or cells: NIH-3T3 cells, transient cotransfection by calcium phosphate
Sequence (P08913 whole entry): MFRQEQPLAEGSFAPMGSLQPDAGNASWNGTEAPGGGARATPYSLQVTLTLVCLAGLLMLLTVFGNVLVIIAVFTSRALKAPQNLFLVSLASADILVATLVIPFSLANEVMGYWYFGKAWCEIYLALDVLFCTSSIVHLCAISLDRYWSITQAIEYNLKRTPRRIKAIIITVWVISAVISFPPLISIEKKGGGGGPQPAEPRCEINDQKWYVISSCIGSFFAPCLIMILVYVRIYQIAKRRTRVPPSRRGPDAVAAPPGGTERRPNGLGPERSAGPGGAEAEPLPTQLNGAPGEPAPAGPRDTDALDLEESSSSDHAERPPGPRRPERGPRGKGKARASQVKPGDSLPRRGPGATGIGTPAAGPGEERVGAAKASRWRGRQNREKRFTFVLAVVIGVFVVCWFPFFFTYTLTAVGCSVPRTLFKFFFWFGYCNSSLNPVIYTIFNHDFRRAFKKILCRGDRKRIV
Measurement notes: RSAT (Receptor Selection and Amplification Technology) assay, alpha 2A
Format: cell-based
Measurement context: NIH-3T3 cells cotransfected with receptor and Gq/i5
Please provide measured EC50 for the entries that follow.

Prompt line: Form field: reported EC50 of COc1cccc(CNC(=S)NCCO)c1F
Response line: > 2000 nM

Prompt line: Given the compound Cc1ccccc1CNC(=S)NCCO , what is its reported EC50?
Response line: ≥ 210000 nM

Prompt line: Return reported EC50; argument: Cc1ccc(CNC(=S)NCCO)cc1
Response line: ≥ 210000 nM

Prompt line: Given OCCNC(=S)NCc1cc(Cl)ccc1F , state its recorded EC50.
Response line: ≥ 210000 nM

Prompt line: # query: EC50 of entry OCCNC(=S)NCc1cccc(C(F)(F)F)c1
Response line: ≥ 210000 nM

Prompt line: // lookup EC50 for OCCNC(=S)NCc1c(Cl)ccc(Cl)c1F
Response line: ≥ 210000 nM

Prompt line: If you can, please state the reported EC50 value of Cc1cccc(CNC(=S)NCCO)c1 .
Response line: ≥ 210000 nM

Prompt line: Value lookup for EC50; key = COc1cccc(F)c1CNC(=S)NCCO
Response line: ≥ 210000 nM

Prompt line: // query EC50 value for entry OCCNC(=S)NCc1c(F)c(F)c(F)c(F)c1F
Response line: ≥ 210000 nM

Prompt line: Sample Cc1ccc(F)c(CNC(=S)NCCO)c1 — what was its EC50?
Response line: ≥ 210000 nM

Prompt line: Look up EC50 for this compound: OCCNC(=S)NCc1cccc(Br)c1F
Response line: 136 nM

Prompt line: Any idea what its EC50 is? The compound is OCCNC(=S)NCc1c(F)cc(F)c(F)c1F
Response line: ≥ 210000 nM

Prompt line: Sample OCCNC(=S)NCc1cccc(I)c1F — what was its EC50?
Response line: 62 nM

Prompt line: So what does the record say about EC50 for OCCNC(=S)NCc1ccccc1C(F)(F)F ?
Response line: ≥ 210000 nM

Prompt line: What EC50 value was documented for this compound, COc1cccc(CNC(=S)NCCO)c1 ?
Response line: ≥ 210000 nM

Prompt line: Which measured EC50 value corresponds to OCCNC(=S)NCc1c(F)ccc(Cl)c1F ?
Response line: ≥ 210000 nM

Prompt line: What measured EC50 goes with COc1ccc(F)cc1CNC(=S)NCCO ?
Response line: 930 nM
